Cited source for all entries: PubChem BioAssay

METHOD_NOTES: E. coli acrAB mutant growth effects, primary screen, E. coli filamentation inducers, strain DRC39, OD650, 48 h (AID 1179);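 note: screen aims at cell division blockers that make cells filament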
STUDY_CONDITIONS: E. coli DRC39 delta-acrAB growth, higher = more signal, called active from +8 up or from −8 down
Assign met whenever z-score does not fall below 0.5; assign not met whenever it does.

Past entries and their recorded results:
C=C[C@@H](C)[C@H](O)c1ccc(OCCO)cc1
met
CC(C)OC(=O)CC(=O)CC(O)c1ccc([N+](=O)[O-])cc1 (stereo unspecified)
not met
COc1ccc(C(O)C2C=CC3C(=O)N(c4ccccc4)C(=O)C3N2Nc2ccccc2)cc1 (stereo unspecified)
not met
COC(=O)C1=CC(CCCO)=CC(C)N(Cc2cccc(OC(F)(F)F)c2)C=C1C(=O)OC (stereo unspecified)
met

Exercise: Exam item: decide whether the reported z-score for "CC(C)CNC(=O)[C@@]1(C)c2ccccc2C(=O)N(Cc2cc(C(F)(F)F)cc(C(F)(F)F)c2)[C@H]1c1ccc(CO)cc1" is at least 0.5.
Key: met

Exercise: How about "COc1ccc([Si](C)(C)[C@H]2[C@H](CCO)O[C@@]3(C(=O)N(Cc4ccc(N5C(=O)c6ccccc6Oc6ccccc65)cc4)c4ccccc43)[C@@H]2C)cc1" ?
Key: met

Exercise: How about CCN(CC)c1ccc(N2CC=CC34O[C@@H]5C=CCCOC(=O)C5[C@H]3C(=O)N(CCO)[C@@H]4C2=O)cc1 (stereo partly specified) ?
Key: not met

Exercise: How about CN1C(=O)C2C(C1=O)C1C=C(CCCO)C2C(c2cccs2)N1Cc1cc2c(cc1Br)OCO2 (stereo unspecified) ?
Key: not met

Exercise: How about CS(=O)(=O)CCOC(=O)C1=CC(CCCO)=CC(C2CC2)N(Cc2cccc(OC(F)(F)F)c2)C=C1C(=O)OCCS(C)(=O)=O (stereo unspecified) ?
Key: not met

Exercise: How about "CCOC(=O)C1=C[C@@H](C(C)(C)C)N(S(=O)(=O)c2ccc(C)cc2)[C@H]1c1ccccc1" ?
Key: not met

Exercise: How about "COCC(=C=CC[C@@H](O)c1cccc(OCCO)c1)CCO" ?
Key: not met

Exercise: How about O=C1OCC=C[C@H]2OC34C=CCN(c5ccc6ccccc6c5)C(=O)[C@H]3N(CCCCCO)C(=O)[C@@H]4[C@@H]12 (stereo partly specified) ?
Key: not met

Exercise: How about COc1ccc(C(O)C2C=CC3C(=O)N(c4ccccc4)C(=O)C3N2Nc2ccc(C(C)C)cc2)c2ccccc12 (stereo unspecified) ?
Key: not met

Exercise: How about "COCCOC(=O)N1C(=O)[C@@]2(c3cc(C#CCCO)ccc31)[C@H](c1ccccc1OCCO)N1[C@H](c3ccccc3)[C@H](c3ccccc3)OC(=O)[C@H]1[C@@H]2C(=O)N1CCCCCCC1" ?
Key: not met

Exercise: How about "COc1ccc([Si](C)(C)[C@H]2[C@H](CCO)O[C@@]3(C(=O)N(Cc4ccccc4)c4ccc(N5C(=O)c6ccccc6Oc6ccccc65)cc43)[C@@H]2C)cc1" ?
Key: not met

###

As shown below, each of these molecules has a reported z-score value.
METHOD_NOTES: MM1S myeloma cell viability, profiling panel, resazurin fluorescence, basal, 24 h, PK04 Diversity Set (AID 1174);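 note: MM1S multiple myeloma cell line; test concentration not given here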
STUDY_CONDITIONS: higher = more signal, called active from +8 up or from −8 down
Reply with the value as a number alone.

For orientation, consider the following solved cases.
CCOC(=O)C1=C[C@@H](C(C)(C)C)N(S(=O)(=O)c2ccc(C)cc2)[C@H]1c1cccc(Cl)c1
-1.66
CCC(CC)C(O)C1C=CC2C(=O)N(c3ccccc3)C(=O)C2N1Nc1ccc([N+](=O)[O-])cc1 (stereo not given)
-0.89
C=CCC(OC(C)=O)[C@@H]1[C@@H](N(Cc2cccc3ccccc23)C(=O)Cc2ccc(F)cc2)c2cc(OCCCO)ccc2N1C(=O)c1ccc(-c2ccccc2)cc1 (stereo not given in full)
-0.0279
CCCCCCCCCCC(O)C1C=CC2C(=O)N(c3ccccc3)C(=O)C2N1Nc1ccccc1F (stereo not given)
-0.361
C=C(COC)/C(=C/C[C@H](OC(C)=O)c1cccc(OCCO)c1)c1cnc2ccccc2c1
-0.496
CO[C@H]1O[C@H](CO)[C@@H](OC(=O)Nc2ccc(C#N)cc2)[C@@H]2OC(=O)[C@H](Cc3cccc(Br)c3)C/C=C/C[C@@H](Cc3cccc(Br)c3)C(=O)O[C@@H]12
-3.14
CC(C)CNC(=O)[C@@]1(C)c2ccccc2C(=O)N(Cc2cc(C(F)(F)F)cc(C(F)(F)F)c2)[C@H]1c1ccc(CO)cc1
-0.47
C=CCC(OC(C)=O)[C@@H]1[C@@H](N(Cc2ccc(-c3ccccc3)cc2)C(=O)c2ccc(C)cc2)c2cc(OCCCO)ccc2N1C(=O)Cc1ccc2ccccc2c1 (stereo not given in full)
1.38
CCCNC(=O)[C@@]1(C)c2ccccc2C(=O)N(Cc2ccccc2)[C@H]1c1ccc(CO)cc1
0.435
CC(=O)n1cc(C(O)C2C=CC3C(=O)N(c4ccccc4)C(=O)C3N2Nc2ccc(C(C)C)cc2)c2ccccc21 (stereo not given)
-1.12

Exercise: Consider the molecule shown here: "C=C[C@@H](C)[C@@H](OC(=O)Nc1ccc(SC)cc1)c1ccc(OCCO)cc1" What is its recorded z-score?
Key: -0.682
